Exercise: state measured viscosity for each of the compounds provided.
# run-description: xn = mol fraction of the nth substance listed
# condition-label: 318.15 K; 101 kPa; x2 = 0.2
Give a bare numeral; the unit mPa·s is implied.

Need viscosity of CCCCCCCO + CCCO , thanks.
2.728

# iterate: CCN(CC)CCO + O=C1CCCCC1
1.564

# iterate: CCCCCCCO + CCO
2.607

# iterate: CCCCCCCO + CO
2.488

====

# run-description: xn = mol fraction of the nth substance listed
# condition-label: 298.15 K; 101 kPa; x1 = 0.6
value-kind: viscosity (mPa·s)
Give a bare numeral; the unit mPa·s is implied.

Need viscosity of CS(C)=O + O , thanks.
3.008

# iterate: CC1(C)OCC(CO)O1 (stereo unspecified) + OCCO
9.722

# iterate: CS(C)=O + CO
1.212

# iterate: CS(C)=O + Cc1ccccc1
1.122

# iterate: CCCCC + COC(C)=O
0.232

# iterate: CS(C)=O + CC#N
0.987

All figures here come from the CheMixHub viscosity set.
